Reported clearance values for the following molecules.
assay: Plasma clearance in C57 mouse; type: ADME, organism-based
REPORTED_PROPERTY: clearance (mL/min/kg)

molecule="O=S(=O)(c1cccc2c(O)nccc12)N1CCCNCC1 [HYDROXYFASUDIL]" reported_measurement=34
molecule=C[C@@H](N)[C@H]1CC[C@H](C(=O)Nc2ccncc2)CC1 reported_measurement=50.9
molecule=Nc1nccc2cc(O[C@H]3CCCNC3)ccc12 reported_measurement=9.5

* * *

Here's what we have: IC50 numbers for Rho-associated protein kinase 1 (Homo sapiens).
REPORTED_PROPERTY: IC50 (nM)

chem_smiles=Nc1nccc2cc(CNCCc3ccccc3)ccc12 reported_property=IC50 reported_measurement=1290
chem_smiles=Nc1nccc2cc(CNCCOc3ccccc3)ccc12 reported_property=IC50 reported_measurement=589
chem_smiles=Nc1nccc2cc(CNCCc3ccc(Cl)c(Cl)c3)ccc12 reported_property=IC50 reported_measurement=776
chem_smiles=COc1ccc(CCNCc2ccc3c(N)nccc3c2)cc1 reported_property=IC50 reported_measurement=1000
chem_smiles=NCc1ccc2c(N)nccc2c1 reported_property=IC50 reported_measurement=7760
chem_smiles=CN(CCc1ccccc1)Cc1ccc2c(N)nccc2c1 reported_property=IC50 reported_measurement=427
chem_smiles=Nc1nccc2cc(OC3CCNCC3)ccc12 reported_property=IC50 reported_measurement=3630
chem_smiles=Nc1nccc2cc(CNCCNc3ccccc3)ccc12 reported_property=IC50 reported_measurement=1480
chem_smiles=Cc1ccc(CCNCc2ccc3c(N)nccc3c2)cc1 reported_property=IC50 reported_measurement=813

* * *

assay: Half life in Wistar rat; assay type: ADME, organism-based; conditions: in vivo
REPORTED_PROPERTY: half-life (h)

chem_smiles=Nc1nccc2cc(O[C@H]3CCCN(Cc4ccccc4)C3)ccc12 reported_property=half-life reported_measurement=8.2

* * *

experiment: Permeability from apical to basolateral side of human Caco2 cells; assay type: ADME, cell-based; conditions: Caco-2, read-out: permeability
REPORTED_PROPERTY: Papp A→B (×10⁻⁶ cm/s)

chem_smiles=Nc1nccc2cc(O[C@H]3CCCNC3)ccc12 reported_measurement=6.3
chem_smiles=Nc1nccc2cc(O[C@H]3CCCN(Cc4ccccc4)C3)ccc12 reported_measurement=2.2

* * *

test: Oral bioavailability in C57 mouse; format: ADME, organism-based; settings: in vivo
REPORTED_PROPERTY: bioavailability

compound=O=S(=O)(c1cccc2cnccc12)N1CCCNCC1 reported_measurement=3.6%
compound=C[C@@H](N)[C@H]1CC[C@H](C(=O)Nc2ccncc2)CC1 reported_measurement=52%
compound=Nc1nccc2cc(O[C@H]3CCCNC3)ccc12 reported_measurement="> 75%"
compound="O=S(=O)(c1cccc2c(O)nccc12)N1CCCNCC1 [HYDROXYFASUDIL]" reported_measurement=57%

* * *

test: Dissociation constant, pKa of the compound; format: physicochemical
REPORTED_PROPERTY: pKa

chem_smiles=NCc1ccc2c(N)nccc2c1 reported_measurement=7.6

* * *

assay: Volume of distribution at steady state in Wistar rat; format: ADME, organism-based; settings: in vivo, read-out: Vdss
REPORTED_PROPERTY: Vd (L/kg)

chem_smiles=Nc1nccc2cc(O[C@H]3CCCN(Cc4ccccc4)C3)ccc12 reported_measurement=8.2

* * *

experiment: Half life in rat liver microsome; type: ADME; settings: liver microsomes
# maps each entry to its half-life
REPORTED_PROPERTY: half-life (min)

chem_smiles=Nc1nccc2cc(O[C@H]3CCCNC3)ccc12 reported_property=half-life measure_unit=min value_comparator=> reported_measurement=120
chem_smiles=Nc1nccc2cc(O[C@H]3CCCN(Cc4ccccc4)C3)ccc12 reported_property=half-life measure_unit=min value_comparator== reported_measurement=22

* * *

target: Rho-associated protein kinase 1 (Homo sapiens, UniProt Q13464); assay: Displacement of Y-27632 from ROCK-1 assessed as drop in intensity of binding signals by NMR competition experiment; set-up: concentration or dose not given beside the values
Sequence (Q13464 2-1354 limits assumed): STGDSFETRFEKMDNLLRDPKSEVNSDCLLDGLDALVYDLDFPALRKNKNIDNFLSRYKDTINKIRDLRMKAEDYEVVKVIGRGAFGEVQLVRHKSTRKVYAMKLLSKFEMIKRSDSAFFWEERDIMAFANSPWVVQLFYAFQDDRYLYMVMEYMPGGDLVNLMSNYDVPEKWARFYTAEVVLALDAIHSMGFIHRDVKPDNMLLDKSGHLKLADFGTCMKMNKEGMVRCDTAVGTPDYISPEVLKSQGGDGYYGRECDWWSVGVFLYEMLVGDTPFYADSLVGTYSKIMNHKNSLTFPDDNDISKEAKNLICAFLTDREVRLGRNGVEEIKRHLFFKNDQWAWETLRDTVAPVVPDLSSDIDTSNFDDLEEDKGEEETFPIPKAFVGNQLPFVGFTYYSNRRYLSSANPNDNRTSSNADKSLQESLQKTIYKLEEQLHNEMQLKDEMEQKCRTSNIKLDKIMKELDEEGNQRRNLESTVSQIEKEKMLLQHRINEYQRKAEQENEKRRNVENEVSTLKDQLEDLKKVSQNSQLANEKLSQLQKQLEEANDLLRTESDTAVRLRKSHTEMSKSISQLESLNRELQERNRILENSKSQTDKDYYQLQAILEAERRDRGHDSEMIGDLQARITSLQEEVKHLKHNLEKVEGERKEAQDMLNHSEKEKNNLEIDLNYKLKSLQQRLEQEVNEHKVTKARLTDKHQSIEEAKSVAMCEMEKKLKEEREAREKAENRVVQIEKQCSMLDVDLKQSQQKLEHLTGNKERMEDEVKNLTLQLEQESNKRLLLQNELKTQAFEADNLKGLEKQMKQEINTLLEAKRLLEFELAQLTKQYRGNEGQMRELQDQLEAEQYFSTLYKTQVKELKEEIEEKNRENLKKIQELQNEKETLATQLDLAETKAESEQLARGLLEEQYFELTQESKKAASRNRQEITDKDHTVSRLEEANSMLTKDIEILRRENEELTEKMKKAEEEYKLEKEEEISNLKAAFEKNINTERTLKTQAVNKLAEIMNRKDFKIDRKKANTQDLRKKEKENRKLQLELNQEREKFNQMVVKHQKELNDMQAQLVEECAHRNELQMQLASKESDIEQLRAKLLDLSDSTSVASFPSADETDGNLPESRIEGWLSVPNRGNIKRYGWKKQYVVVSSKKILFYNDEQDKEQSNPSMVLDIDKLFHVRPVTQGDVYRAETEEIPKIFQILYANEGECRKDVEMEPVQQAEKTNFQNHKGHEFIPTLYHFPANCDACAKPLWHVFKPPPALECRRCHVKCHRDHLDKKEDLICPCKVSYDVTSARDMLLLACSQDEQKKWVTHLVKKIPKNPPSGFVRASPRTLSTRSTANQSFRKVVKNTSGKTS
REPORTED_PROPERTY: Activity (%)

compound=Nc1nc2c(c(=O)[nH]1)CC=N2 value_comparator== reported_measurement=68
compound=CC(=O)c1ccccc1 value_comparator== reported_measurement=60
compound=c1ccn2ccnc2c1 value_comparator== reported_measurement=38
compound=Nc1ccnc2ccncc12 value_comparator=> reported_measurement=80
compound=NC(=O)c1ccccc1O value_comparator== reported_measurement=34
compound="CC1=NC(C(C)C)CO1 (stereo unspecified)" value_comparator== reported_measurement=40
compound=c1ccc(-n2cccc2)nc1 value_comparator== reported_measurement=30
compound=Nc1ncnc2ccccc12 value_comparator=> reported_measurement=80
compound=CC1(C)C(=O)Nc2ccccc21 value_comparator== reported_measurement=25
compound=c1ccc2[nH]ncc2c1 value_comparator=> reported_measurement=80
compound=O=C(Nc1nccs1)c1ccncc1 value_comparator=> reported_measurement=80
compound=Cn1nc(C(C)(C)C)cc1N value_comparator== reported_measurement=20
compound=c1cc(N2CCOCC2)ccn1 value_comparator=> reported_measurement=80
compound=c1ccc2[nH]cnc2c1 value_comparator== reported_measurement=64
compound=c1ccc2cnccc2c1 value_comparator== reported_measurement=70
compound=c1cc(-c2cnco2)ccn1 value_comparator=> reported_measurement=80

* * *

test: Permeability from basolateral to apical side of human Caco2 cells; type: ADME, cell-based; conditions: Caco-2, read-out: permeability
REPORTED_PROPERTY: Papp B→A (×10⁻⁶ cm/s)

chem_smiles=Nc1nccc2cc(O[C@H]3CCCNC3)ccc12 measure_unit="×10⁻⁶ cm/s" reported_measurement=3.6
chem_smiles=Nc1nccc2cc(O[C@H]3CCCN(Cc4ccccc4)C3)ccc12 measure_unit="×10⁻⁶ cm/s" reported_measurement=1.5

* * *

Reported half-life values for the following compounds.
assay: Half life in rat hepatocyte; type: ADME, cell-based, Liver; details: hepatocytes
REPORTED_PROPERTY: half-life

chem_smiles=Nc1nccc2cc(O[C@H]3CCCNC3)ccc12 reported_property=half-life reported_measurement="70 min"
chem_smiles=Nc1nccc2cc(O[C@H]3CCCN(Cc4ccccc4)C3)ccc12 reported_property=half-life reported_measurement="27 min"

* * *

test: Half life in C57 mouse; type: ADME, organism-based; details: in vivo
# Lookup of reported half-life keyed by entry
REPORTED_PROPERTY: half-life

molecule="O=S(=O)(c1cccc2c(O)nccc12)N1CCCNCC1 [HYDROXYFASUDIL]" reported_measurement="0.75 h"
molecule=C[C@@H](N)[C@H]1CC[C@H](C(=O)Nc2ccncc2)CC1 reported_measurement="1.67 h"
molecule=Nc1nccc2cc(O[C@H]3CCCNC3)ccc12 reported_measurement="5.8 h"

* * *

test: Half life in human liver microsome; assay type: ADME; settings: liver microsomes
Below, each of the compounds is paired with its reported half-life value.
REPORTED_PROPERTY: half-life (min)

chem_smiles=Nc1nccc2cc(O[C@H]3CCCNC3)ccc12 reported_property=half-life value_comparator=> reported_measurement=120
chem_smiles=Nc1nccc2cc(O[C@H]3CCCN(Cc4ccccc4)C3)ccc12 reported_property=half-life value_comparator== reported_measurement=12

* * *

Reported values of Vd for individual entries
experiment: Volume of distribution at steady state in C57 mouse; type: ADME, organism-based; settings: in vivo, read-out: Vdss
REPORTED_PROPERTY: Vd (L/kg)

compound="C[C@@H](N)[C@H]1CC[C@H](C(=O)Nc2ccncc2)CC1 [Y-27632]" reported_property=Vd reported_measurement=3.8
compound="O=S(=O)(c1cccc2c(O)nccc12)N1CCCNCC1 [HYDROXYFASUDIL]" reported_property=Vd reported_measurement=2.4
compound="O=S(=O)(c1cccc2cnccc12)N1CCCNCC1 [FASUDIL]" reported_property=Vd reported_measurement=1.8
compound=Nc1nccc2cc(O[C@H]3CCCNC3)ccc12 reported_property=Vd reported_measurement=11

* * *

experiment: Plasma clearance in Wistar rat; format: ADME, organism-based
REPORTED_PROPERTY: clearance (mL/min/kg)

chem_smiles=Nc1nccc2cc(O[C@H]3CCCN(Cc4ccccc4)C3)ccc12 reported_measurement=295

* * *

test: Half life in mouse liver microsome; type: ADME; conditions: liver microsomes
REPORTED_PROPERTY: half-life

chem_smiles=Nc1nccc2cc(O[C@H]3CCCN(Cc4ccccc4)C3)ccc12 reported_property=half-life reported_measurement="> 2 h"
chem_smiles=Nc1nccc2cc(O[C@H]3CCCNC3)ccc12 reported_property=half-life reported_measurement="> 2 h"
